Below, each of the binders is paired with its reported kon value.
Target: T1, CD137-hisFc fusion protein (Sino Biological Cat 10041-H03H) (human, UniProt Q07011 24-186)
T1 construct: Bought; also called recombinant human CD137 (fused with human Fc and His tag); not shown: His tag and human Fc
Assay: BLI Octet, Fab
Note: unit M⁻¹ s⁻¹ is implicit; provide only the numeric part.

Reference set (3 entries):
{"columns": ["binder", "unitDescriptor", "kon"],
 "data": [
  ["Fab 7088 (Fab, V domains shown, Fab from E. coli; also called VH46/VL46) VH: EVQLVESGGGLVQPGGSLRLSCAASGFSLSTSGVGVGWIRQAPGKGLEWVSYISGDGGSTYYADSVKGRFTISRDNSKNTLYLQLNSLRAEDTAVYYCAREGSTAVVGDWFAYWGQGTLVTVSS VL: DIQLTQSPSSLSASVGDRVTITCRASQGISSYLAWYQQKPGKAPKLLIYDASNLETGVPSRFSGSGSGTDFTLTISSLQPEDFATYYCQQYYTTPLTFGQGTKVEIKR", "M⁻¹ s⁻¹", 255000],
  ["Fab 5365 (Fab, V domains shown, Fab from E. coli; also called VH30/VL30) VH: EVQLVESGGGLVQPGGSLRLSCAASGFSLSTGGVGVGWIRQAPGKGLEWLALIDWADDKYYSPSLKSRLTISRDNSKNTLYLQLNSLRAEDTAVYYCARGGSDTVIGDWFAYWGQGTLVTVSS VL: DIQLTQSPSSLSASVGDRVTITCRASQSIGSYLAWYQQKPGKAPKLLIYDASNLETGVPSRFSGSGSGTDFTLTISSLQPEDFATYYCQQGYYLWTFGQGTKVEIKR", "M⁻¹ s⁻¹", 701000],
  ["Fab 4076 (Fab, V domains shown, Fab from E. coli; also called VH4/VL4) VH: EVQLVESGGGLVQPGGSLRLSCAASGYSITSGYHWGWIRQAPGKGLEWVSAISGAGGSTYYADSVKGRFTISRDNSKNTLYLQLNSLRAEDTAVYYCARDGYGGSYFDYWGQGTLVTVSS VL: DIQLTQSPSSLSASVGDRVTITCQASQDISTFLAWYQQKPGKAPKLLIYDASSLESGVPSRFSGSGSGTDFTLTISSLQPEDFATYYCQQAYSIWTFGQGTKVEIKR", "M⁻¹ s⁻¹", 63800]
]}

Request the reported kon associated with Fab 5408 (Fab, V domains shown, Fab from E. coli; also called VH36/VL36) VH: EVQLVESGGGLVQPGGSLRLSCAASGYSITSGYHWSWIRQAPGKGLEWVSSISGYGDTTYYADSVKGRFTISRDNSKNTLYLQLNSLRAEDTAVYYCAREGSDTVLGDWFAYWGQGTLVTVSS VL: DIQLTQSPSSLSASVGDRVTITCQASQDIRTYLAWYQQKPGKAPKLLIYDASNLETGVPSRFSGSGSGTDFTLTISSLQPEDFATYYCQQGYSIWTFGQGTKVEIKR
318000

Give the measured kon of Fab 5417 (Fab, V domains shown, Fab from E. coli; also called VH39/VL39) VH: EVQLVESGGGLVQPGGSLRLSCAASGFSLSTSGVGVAWIRQAPGKGLEWVSSISGAGGTTYYADSVKGRFTISRDNSKNTLYLQLNSLRAEDTAVYYCARGGSTAVTGDWFDYWGQGTLVTVSS VL: DIQLTQSPSSLSASVGDRVTITCRASQGISPYLAWYQQKPGKAPKLLIYDASNRATGIPSRFSGSGSGTDFTLTISSLQPEDFATYYCQQGYSLWTFGQGTKVEIKR .
57200
